target or test system: P2Y purinoceptor 4 (Homo sapiens, UniProt P51582)
Sequence (P51582 whole entry): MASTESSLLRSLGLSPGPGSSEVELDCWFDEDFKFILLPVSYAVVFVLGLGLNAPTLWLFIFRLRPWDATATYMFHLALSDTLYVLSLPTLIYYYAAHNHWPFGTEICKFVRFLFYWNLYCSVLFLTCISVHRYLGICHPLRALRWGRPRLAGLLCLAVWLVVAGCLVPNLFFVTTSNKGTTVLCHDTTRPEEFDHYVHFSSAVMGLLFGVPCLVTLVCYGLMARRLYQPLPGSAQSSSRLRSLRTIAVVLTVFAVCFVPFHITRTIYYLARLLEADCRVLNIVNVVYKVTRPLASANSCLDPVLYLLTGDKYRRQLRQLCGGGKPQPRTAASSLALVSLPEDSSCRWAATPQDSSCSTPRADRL
test method notes: Antagonist activity at human P2Y4R stably expressed in HEK293 cells assessed as inhibition of UTP-induced IP3 accumulation preincubated with compound for 30 mins followed by UTP addition by ELISA
pIC50: −log10 of the molar value.
outcome measure: pIC50

• COC(=O)c1cc(NC(=O)Cc2ccc(C)cc2)cc(-c2nc3ccccc3[nH]2)c1 = < 4.00

====

test method notes: Stability of the compound in stimulated gastric fluid assessed as half life
Assay type: physicochemical
test parameters: simulated gastric fluid
outcome measure: half-life

* COC(=O)c1cc(NC(=O)Cc2ccc(C)cc2)cc(-c2nc3ccccc3[nH]2)c1 | > 50 h

====

test method notes: Tmax in male Sprague-Dawley rat at 20 mg/kg, po measured upto 24 hrs
Format: ADME, organism-based
test parameters: in vivo
# Tmax per record follows
outcome measure: Tmax (min)

* COC(=O)c1cc(NC(=O)Cc2ccc(C)cc2)cc(-c2nc3ccccc3[nH]2)c1 | 26
* O=C(O)c1cc(-c2ccc(C3CCNCC3)cc2)c2ccc(-c3ccc(C(F)(F)F)cc3)cc2c1 | 17

====

test method notes: Tmax in male Sprague-Dawley rat at 10 mg/kg, iv measured upto 24 hrs
Format: ADME, organism-based
test parameters: male, Sprague-Dawley, in vivo, read-out: Tmax (converted)
outcome measure: Tmax (min)

* COC(=O)c1cc(NC(=O)Cc2ccc(C)cc2)cc(-c2nc3ccccc3[nH]2)c1 | 19

====

target or test system: P2Y purinoceptor 6 (Homo sapiens, UniProt Q15077)
Sequence (Q15077 whole entry): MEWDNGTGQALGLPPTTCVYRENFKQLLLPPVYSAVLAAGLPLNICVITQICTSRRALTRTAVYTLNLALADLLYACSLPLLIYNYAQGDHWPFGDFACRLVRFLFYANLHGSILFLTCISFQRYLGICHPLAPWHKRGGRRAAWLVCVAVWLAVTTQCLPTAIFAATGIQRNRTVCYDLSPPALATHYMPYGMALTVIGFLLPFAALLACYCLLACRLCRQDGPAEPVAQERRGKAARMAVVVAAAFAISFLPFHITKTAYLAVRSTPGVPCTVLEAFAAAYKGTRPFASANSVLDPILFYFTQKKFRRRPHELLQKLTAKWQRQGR
test method notes: Antagonist activity at human P2Y6R stably expressed in HEK293 cells assessed as inhibition of UDP-induced IP3 accumulation preincubated with compound for 30 mins followed by UDP addition by ELISA
pIC50: −log10 of the molar value.
outcome measure: pIC50

* COC(=O)c1cc(NC(=O)Cc2ccc(C)cc2)cc(-c2nc3ccccc3[nH]2)c1 | 4.32

====

target or test system: P2Y purinoceptor 14 (Homo sapiens) (UniProt Q15391)
Sequence (Q15391 whole entry): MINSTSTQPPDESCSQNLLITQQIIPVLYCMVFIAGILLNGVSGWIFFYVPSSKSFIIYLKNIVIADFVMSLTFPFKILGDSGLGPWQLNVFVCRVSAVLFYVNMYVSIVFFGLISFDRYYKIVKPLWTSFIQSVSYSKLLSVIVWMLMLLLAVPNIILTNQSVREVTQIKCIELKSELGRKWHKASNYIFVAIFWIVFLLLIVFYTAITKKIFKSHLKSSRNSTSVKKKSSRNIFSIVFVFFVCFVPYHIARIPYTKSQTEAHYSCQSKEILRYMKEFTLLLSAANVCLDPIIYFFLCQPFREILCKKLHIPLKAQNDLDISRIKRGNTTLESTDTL
test parameters: HEK293, filed as antagonist, dose 100.0 nM, time 30.0 min
# inhibition per record follows
outcome measure: inhibition (%)

• COC(=O)c1cc(NC(=O)Cc2ccc(C)cc2C)cc(-c2nc3ccccc3o2)c1 = 42.3
• O=C(Cn1cccc1)Nc1cc(C(=O)O)cc(-c2nc3ccccc3o2)c1 = 43.2
• COC(=O)c1cc(NC(=O)Cn2cncn2)cc(-c2nc3ccccc3o2)c1 = 41.5
• COc1ccc(CC(=O)Nc2cc(C(=O)O)cc(-c3nc4ccccc4o3)c2)cc1 = 48
• N#Cc1ccc(CC(=O)Nc2cc(C(=O)O)cc(-c3nc4ccccc4o3)c2)cc1 = 46.1
• COC(=O)c1cc(NC(=O)Cc2ccccc2)cc(-c2nc3ccccc3o2)c1 = 48.6

====

test method notes: Clearance in male Sprague-Dawley rat at 10 mg/kg, iv measured upto 24 hrs
Type: ADME, organism-based
test parameters: in vivo
# clearance per record follows
outcome measure: clearance (mL/min/kg)

* COC(=O)c1cc(NC(=O)Cc2ccc(C)cc2)cc(-c2nc3ccccc3[nH]2)c1 | 26.1
* O=C(O)c1cc(-c2ccc(C3CCNCC3)cc2)c2ccc(-c3ccc(C(F)(F)F)cc3)cc2c1 | 11.5

====

# inhibition per record follows
target or test system: P2Y purinoceptor 14 (Homo sapiens) (UniProt Q15391)
test parameters: HEK293, dose 100.0 nM, time 30.0 min
outcome measure: inhibition (%)

- O=C(Cc1ccc(-n2cccc2)cc1)Nc1cc(C(=O)O)cc(-c2nc3ccccc3o2)c1: 24.2
- COC(=O)c1cc(NC(=O)Cc2ccc(C)c(C)c2)cc(-c2nc3ccccc3o2)c1: 34.5
- COC(=O)c1cc(NC(=O)Cc2ccc(-n3cccc3)cc2)cc(-c2nc3ccccc3o2)c1: 32.3
- O=C(Cc1ccc(F)cc1)Nc1cc(C(=O)O)cc(-c2nc3ccccc3o2)c1: 30.8

====

target or test system: UniProtKB P47900
Sequence (P47900 whole entry): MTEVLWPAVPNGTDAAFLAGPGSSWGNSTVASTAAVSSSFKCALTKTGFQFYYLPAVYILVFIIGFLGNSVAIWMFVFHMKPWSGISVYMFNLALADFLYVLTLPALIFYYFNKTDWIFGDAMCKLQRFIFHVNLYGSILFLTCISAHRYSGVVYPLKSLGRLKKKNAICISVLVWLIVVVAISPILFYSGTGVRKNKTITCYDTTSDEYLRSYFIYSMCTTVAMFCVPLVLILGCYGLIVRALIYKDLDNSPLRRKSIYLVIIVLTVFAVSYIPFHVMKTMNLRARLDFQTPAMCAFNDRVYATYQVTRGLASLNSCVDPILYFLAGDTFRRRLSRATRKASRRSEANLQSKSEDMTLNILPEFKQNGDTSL
test method notes: Antagonist activity at human P2Y1R stably expressed in HEK293 cells assessed as inhibition of ADP-induced IP3 accumulation preincubated with compound for 30 mins followed by ADP addition by ELISA method
pIC50: −log10 of the molar value.
outcome measure: pIC50

• COC(=O)c1cc(NC(=O)Cc2ccc(C)cc2)cc(-c2nc3ccccc3[nH]2)c1 = < 4.00

====

target or test system: Cytochrome P450 2C19 (Homo sapiens)
Sequence (P33261 whole entry): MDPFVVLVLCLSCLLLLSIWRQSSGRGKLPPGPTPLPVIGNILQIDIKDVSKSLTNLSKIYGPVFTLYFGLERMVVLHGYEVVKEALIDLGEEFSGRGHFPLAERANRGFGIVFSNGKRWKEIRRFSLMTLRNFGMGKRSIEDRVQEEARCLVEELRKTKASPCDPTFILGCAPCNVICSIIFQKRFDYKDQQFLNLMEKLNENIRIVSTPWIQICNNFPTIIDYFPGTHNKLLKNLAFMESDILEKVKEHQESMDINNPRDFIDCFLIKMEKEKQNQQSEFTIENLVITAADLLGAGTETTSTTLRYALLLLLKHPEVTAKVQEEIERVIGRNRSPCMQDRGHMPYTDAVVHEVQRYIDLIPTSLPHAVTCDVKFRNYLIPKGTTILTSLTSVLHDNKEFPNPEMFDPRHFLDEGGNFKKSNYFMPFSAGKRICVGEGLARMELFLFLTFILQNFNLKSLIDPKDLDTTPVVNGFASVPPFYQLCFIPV
pIC50: −log10 of the molar value.
outcome measure: pIC50

* COC(=O)c1cc(NC(=O)Cc2ccc(C)cc2)cc(-c2nc3ccccc3[nH]2)c1 | < 4.52

====

test method notes: Clearance in male Sprague-Dawley rat at 20 mg/kg, po measured upto 24 hrs
Assay type: ADME, organism-based
test parameters: in vivo
# CL/F per record follows
outcome measure: CL/F (mL/min/kg)

- O=C(O)c1cc(-c2ccc(C3CCNCC3)cc2)c2ccc(-c3ccc(C(F)(F)F)cc3)cc2c1 [PPTN]: 22.1
- COC(=O)c1cc(NC(=O)Cc2ccc(C)cc2)cc(-c2nc3ccccc3[nH]2)c1: 46.5

====

test method notes: Half life in male Sprague-Dawley rat at 20 mg/kg, po measured upto 24 hrs
Assay type: ADME, organism-based
test parameters: in vivo
outcome measure: half-life (h)

* O=C(O)c1cc(-c2ccc(C3CCNCC3)cc2)c2ccc(-c3ccc(C(F)(F)F)cc3)cc2c1 | 0.4
* COC(=O)c1cc(NC(=O)Cc2ccc(C)cc2)cc(-c2nc3ccccc3[nH]2)c1 | 1.6

====

test method notes: Stability of the compound in stimulated intestinal fluid assessed as half life
Type: physicochemical
test parameters: simulated intestinal fluid
outcome measure: half-life

* COC(=O)c1cc(NC(=O)Cc2ccc(C)cc2)cc(-c2nc3ccccc3[nH]2)c1 | > 300 min

====

test method notes: Oral bioavailability in male Sprague-Dawley rat at 20 mg/kg measured upto 24 hrs
Format: ADME, organism-based
test parameters: male, Sprague-Dawley, in vivo
outcome measure: bioavailability (%)

* COC(=O)c1cc(NC(=O)Cc2ccc(C)cc2)cc(-c2nc3ccccc3[nH]2)c1 | 38

====

test method notes: Cmax in male Sprague-Dawley rat at 10 mg/kg, iv measured upto 24 hrs
Format: ADME, organism-based
test parameters: male, Sprague-Dawley, in vivo, read-out: Cmax
outcome measure: Cmax (ng/mL)

• COC(=O)c1cc(NC(=O)Cc2ccc(C)cc2)cc(-c2nc3ccccc3[nH]2)c1 = 964

====

target or test system: UniProt:Q15391
test parameters: HEK293, dose 100.0 nM, time 30.0 min
outcome measure: inhibition

* O=C(Cc1ccc(C(F)(F)F)cc1)Nc1cc(C(=O)O)cc(-c2nc3ccccc3o2)c1 | 23.1%
* O=C(Cn1cncn1)Nc1cc(C(=O)O)cc(-c2nc3ccccc3o2)c1 | 38.3%
* O=C(Cc1cccs1)Nc1cc(C(=O)O)cc(-c2nc3ccccc3o2)c1 | 39.8%
* O=C(Cc1ccccc1)Nc1cc(C(=O)O)cc(-c2nc3ccccc3o2)c1 | 35.2%
* O=C(Cc1ccc(Br)cc1)Nc1cc(C(=O)O)cc(-c2nc3ccccc3o2)c1 | 20.9%
* COC(=O)c1cc(NC(=O)Cc2ccc(OC)cc2)cc(-c2nc3ccccc3o2)c1 | 39.3%
* COC(=O)c1cc(NC(=O)Cc2ccc(C)cc2)cc(-c2nc3ccccc3s2)c1 | 34.7%
* COC(=O)c1cc(NC(=O)Cn2cccc2)cc(-c2nc3ccccc3o2)c1 | 26.3%
* COC(=O)c1cc(NC(=O)Cc2cccs2)cc(-c2nc3ccccc3o2)c1 | 36.5%
